molecular target: human androgen receptor (Homo sapiens, UniProt P10275); construct: expressed in transfected cells; host or cells: HEK293; assay: Reporter assay of an androgen receptor responsive sequence (luciferase, transiently transfected HEK293 cells); assay type: cell-based; settings: 24 hours incubation, relative to activity of 100 nM DHT, read-out: AR transcriptive activity (pEC50) (converted)
Sequence (P10275 whole entry): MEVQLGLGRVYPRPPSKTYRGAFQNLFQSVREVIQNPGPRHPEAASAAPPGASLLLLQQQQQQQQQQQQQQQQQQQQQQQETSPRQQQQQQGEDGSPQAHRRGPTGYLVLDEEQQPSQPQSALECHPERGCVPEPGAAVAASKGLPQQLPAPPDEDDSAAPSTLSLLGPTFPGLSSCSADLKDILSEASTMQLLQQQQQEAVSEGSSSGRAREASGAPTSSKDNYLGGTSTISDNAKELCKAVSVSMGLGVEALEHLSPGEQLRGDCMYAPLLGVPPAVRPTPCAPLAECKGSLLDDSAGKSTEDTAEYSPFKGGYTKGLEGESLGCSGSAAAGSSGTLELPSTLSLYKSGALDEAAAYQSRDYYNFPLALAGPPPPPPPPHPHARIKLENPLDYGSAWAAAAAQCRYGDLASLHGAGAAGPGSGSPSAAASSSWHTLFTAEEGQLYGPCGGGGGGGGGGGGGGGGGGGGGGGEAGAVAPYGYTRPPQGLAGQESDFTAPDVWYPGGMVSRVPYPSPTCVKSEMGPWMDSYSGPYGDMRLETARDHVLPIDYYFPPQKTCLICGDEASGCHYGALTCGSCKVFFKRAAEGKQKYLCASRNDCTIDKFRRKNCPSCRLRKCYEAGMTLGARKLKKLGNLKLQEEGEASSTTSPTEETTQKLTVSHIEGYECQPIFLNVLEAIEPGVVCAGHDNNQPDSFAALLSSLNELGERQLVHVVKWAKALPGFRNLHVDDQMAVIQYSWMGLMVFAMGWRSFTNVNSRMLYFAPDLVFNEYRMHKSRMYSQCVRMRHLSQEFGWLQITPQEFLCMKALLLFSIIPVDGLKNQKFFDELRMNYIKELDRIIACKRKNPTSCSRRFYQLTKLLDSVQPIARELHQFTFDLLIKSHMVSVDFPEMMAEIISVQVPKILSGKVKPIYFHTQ
recorded_metric: EC50 (nM)
Write the answer as a number in nM, unit excluded.

Worked examples follow.
compound | test_system | scale_unit | EC50
Cc1nc(CN(CCc2ccc(OC(F)F)cc2)c2nc(C(=O)NS(C)(=O)=O)c(C)s2)cs1 [Compound 513] | human androgen receptor (Homo sapiens, UniProt P10275) | nM | 1580
COc1cccc(CN(CCc2ccc(OC(F)(F)F)cc2)c2nc(C(=O)NS(C)(=O)=O)c(C)s2)n1 [Compound 505] | human androgen receptor (Homo sapiens, UniProt P10275) | nM | 2000
CS(=O)(=O)NC(=O)c1nc(N(Cc2ccc(Br)cn2)c2ccc(C#N)cc2)sc1Br [Compound 642] | human androgen receptor (Homo sapiens, UniProt P10275) | nM | 50.1

// next entry
Respond only with EC50 recorded for Cc1sc(N(Cc2ccccc2)c2ccc3ncccc3c2)nc1C(=O)NS(C)(=O)=O [Compound 54] 1580
